Give measured pIC50 for each item. Keep answers brief.
- experimental system: KRAS (G12D)::SOS1 (Homo sapiens (Human), UniProt P01116, G12D)
- Sequence (P01116 other isoform, or with tags, fused parts or gaps G12D): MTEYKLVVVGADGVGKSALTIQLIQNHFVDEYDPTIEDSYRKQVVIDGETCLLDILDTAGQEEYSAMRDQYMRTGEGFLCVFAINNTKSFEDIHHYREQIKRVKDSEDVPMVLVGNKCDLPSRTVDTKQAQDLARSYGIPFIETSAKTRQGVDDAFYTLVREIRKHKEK
- test: KRAS::SOS1 AlphaScreen binding assay, KRAS G12D
Give bare numbers, as −log10 of the molar value.

>>> df
                                test_smiles  endpoint_name  numeric_result
0  CO[C@@H]1C[C@@H]([C@H](C)Oc2cc(N3CCNC4(CC4)C3)nc(-c3noc4c3CCC[C@@]43CCCc4sc(N)c(C#N)c43)n2)N(C)C1          pIC50            9.00
1  CO[C@@H]1C[C@@H]([C@H](C)Oc2cc(-c3ccn(C)n3)nc(-c3noc4c3CCC[C@@]43CCCc4sc(N)c(C#N)c43)n2)N(C)C1          pIC50            8.40

Moving on to the next compound.
The measured pIC50 associated with C[C@H](Oc1cc([C@@H]2CCOC2)nc(-c2onc3c2CCC[C@@]32CCCc3sc(N)c(C#N)c32)n1)[C@@H]1CCCN1C reads 9.00

Where do the numbers come from? From patent US20240174690A1.
